Cited source: patent US20230312652A1

# EXPERIMENT_NOTES: Plasma stability, mouse plasma
# Format: in vitro ADME
# CONDITION_DETAILS: 2 μM, 37° C.
Where a SMILES comes first, the peptide text is derived from it.
ENDPOINT_LABEL: half-life

If you can, please state the reported half-life value of CSCC[C@@H]1NC(=O)[C@H](C(C)C)NC(=O)[C@H](CC(=O)O)NC(=O)[C@H](CCC(=O)O)NC(=O)[C@H](CCC(=O)O)NC(=O)[C@H](Cc2c[nH]cn2)NC(=O)[C@H](CCC(=O)O)NC(=O)[C@H](C(C)C)NC(=O)[C@@H]2CCCN2C(=O)[C@H](CCC(=O)O)NC(=O)[C@H]([C@@H](C)O)NC1=O [Peptide P1, [MTEPVEHEEDV]] (cyclo(MTEPVEHEEDV)) . > 4.82 h
